- Method Summary: protein stability index of a GFP-peptide fusion (yeast GPS) (PSI 1-4); higher = more stable; sorted into four equal gates, so the index is relative within each strain
- Condition Info: san1∆

Item Sequence	protein stability index
GEMVGVLAAQSIGEPAT [RPO21]	2.38
KMDFSSKEGQYKAKIKE [YIL149C/MLP2]	3.17
SPPIIDLFSNNNYNSRI [MED1]	2.86
ASSAVMNRRKIAMPKRR [YLR335W/NUP2]	1.23
DASPDSLEALIDLCHDF [YCS4]	2.86
NISGEFFRNKLKYHDFL [RPL16B]	2.22
KYIGEGSRMVRELFVMA [RPT6]	2.81
PLSNEVFEISENNSDSN [SWI1]	2.84
NDPNAAVNMTQNIMTLP [MED6]	2.71
SVYGLDDISRQVARTNL [ROX3]	1.96
ANNYSSNIGNNSINNNN [YDL088C/ASM4]	2.94
TIVTGGGSGNGDDVVND [RPP1]	3.22
EILRIHSRKMNLTRGIN [RPT6]	2.29
DNMSEEQWLRQFEVSDD [SNF2]	3.16
NHNKTKLLKSLKNTKYF [PRP8]	1.54
DEIKAQRKEIKDRISSC [SMC4]	3.13
RIVGSELIQKYLGDGPR [RPT2]	3.33
YLGEGPRMVRDVFRLAR [RPT3]	2.8
FLTVSKLWAEIIVKILY [GRR1]	1.53
GSMFSGDNTSDVDMEDR [RRI1]	2.51
RQQQENSSKIITLDLSN [SMC1]	3.18
VIAHLTVEALDFREKAL [RET1]	2.12
HPIRLYTRYLDRIYMLF [PRP8]	2.29
IAGVITRSKRLSQVYPT [CSN12]	3.11
IVPGTYIQERNPSQRPQ [RPS10B]	3.08
LNRIKKYLLTQRVFKPV [PRP8]	2.33
VGDFLLQYANNAVISHA [SIN4]	1.82
LDNSKMDYHFIFSYLQF [RGR1]	1.89
NDEKRVKEEYDIWQSRD [YIL149C/MLP2]	3.25
EDAIHIALLTLKESVEG [PRE8]	2.94

* * *

- Method Summary: protein stability index of a GFP-peptide fusion (yeast GPS) (PSI 1-4); higher = more stable; sorted into four equal gates, so the index is relative within each strain
- Condition Info: san1∆
protein stability index overview
Readout Type: protein stability index

Item Sequence	Readout Number
EQLSEEDAKLKTDLELL [RPN1]	3.25
EHFLKLNIDFGSDKQMF [YML103C/NUP188]	2.26
FIYKKVLKEKDVPAYNV [SRB8]	2.95
QQQQQQQQQQQQQGQIP [SNF5]	2.75
TDANGKTIVTGGNGPED [RPO26]	3.48
LGSKKELGISLEHPYGK [SNU114]	3.1
QLKYDTSVQEKELMLQS [YIL149C/MLP2]	2.81
LVEARSLGHQTSLITAV [MTR3]	2.79
MNIIQQQQQQNTNNNDT [GAL11]	2.46
TGLLIARRTLQKLGLDE [RPL5]	3.39
ALLIAGHDADDGYQLFH [PUP2]	3.22
MSSDASTYRLEDVLSSF [SSN2]	1.9
SIRRQDYINELSNSNRF [REC8]	3.4
HVDSLIEDFVDGIANSK [SRB7]	3.04
VKIHSQESLLSRTFDKY [SRP72]	2.96
NSEYLKRRVTNLEFNYT [SMC2]	2.5
FLKKLRNEQVTIELKNG [SMD1]	2.42
VVWYQRLTMGNVFTPEI [RRI2]	2.27
VNLEDNTQDLLLLLSLF [YML103C/NUP188]	2.41
SKDELREKLAEVYKAEK [RPS24A]	3.59
FKVQELLHSKPSLLLQK [NAS6]	2.64
HYPEIEDLVDRIENPEK [RPP0]	2.97
CIIAVSCTLLERGHPKD [POP1]	1.81
GDPALVYKFMSLAKSSA [ECM29]	2.54
KDTIVKEAEDKTLVALE [RPC37]	3.33
IIYHTTFSWLNAELLDY [YLR018C/POM34]	2.56
EINETEFIRCGCLIKNL [RMP1]	2.82
IGTINSIVHINSQERVQ [SIR2]	2.12
RAHGRINKYESSPSHIE [RPL17A]	2.99
RTFRLNECVCTPYNADF [RPO31]	2.77
